Experiment: In vitro microsomal metabolic stability, human liver microsomes
Format: in vitro ADME
Details: human, human liver microsomes, pH 7.2
# maps each entry to its log10 of microsomal CLint at 1 µM
The figures below represent log10 of microsomal CLint at 1 µM, where microsomal CLint at 1 µM is stated in µL/min/mg.

Reference set, count: 6
# Compound, log10 of microsomal CLint at 1 µM
rows = [
    ("CO[C@@H]1CC(C[C@@H](C)[C@@H]2CC[C@H](C)/C=C(\\C)[C@@H](O)[C@@H](OC)C(=O)[C@H](C)C[C@H](C)/C=C/C=C/C=C(\\C)C(Nc3cncc(C)n3)CC3CC[C@@H](C)[C@@](O)(O3)C(=O)C(=O)N3CCCC[C@H]3C(=O)O2)CC[C@H]1O (stereo partly shown)", 1.72),
    ("CO[C@@H]1C[C@H](C[C@@H](C)[C@@H]2CC[C@H](C)/C=C(\\C)[C@@H](O)[C@@H](OC)C(=O)[C@H](C)C[C@H](C)/C=C/C=C/C=C(\\C)C(NS(=O)(=O)c3cnoc3C)C[C@@H]3CC[C@@H](C)[C@@](O)(O3)C(=O)C(=O)N3CCCCC3C(=O)O2)CC[C@H]1O (stereo partly shown)", 2.31),
    ("CO[C@@H]1C[C@H](C[C@@H](C)[C@@H]2CC[C@H](C)/C=C(\\C)[C@@H](O)[C@@H](OC)C(=O)[C@H](C)C[C@H](C)/C=C/C=C/C=C(\\C)C(Nc3cnon3)C[C@@H]3CC[C@@H](C)[C@@](O)(O3)C(=O)C(=O)N3CCCCC3C(=O)O2)CC[C@H]1O (stereo partly shown)", 2.29),
    ("CO[C@H]1C[C@@H]2CC[C@@H](C)[C@@](O)(O2)C(=O)C(=O)N2CCCC[C@H]2C(=O)O[C@H]([C@H](C)C[C@@H]2CC[C@@H](OCCO)[C@H](OC)C2)CC(=O)[C@H](C)/C=C(\\C)[C@@H](O)[C@@H](OC)C(=O)[C@H](C)C[C@H](C)/C=C/C=C/C=C/1C [RAD001, everolimus, reference compound]", 2.09),
    ("CO[C@@H]1C[C@H](C[C@@H](C)[C@@H]2CC[C@H](C)/C=C(\\C)[C@@H](O)[C@@H](OC)C(=O)[C@H](C)C[C@H](C)/C=C/C=C/C=C(\\C)C(Nc3cccc(OC(F)(F)F)c3)C[C@@H]3CC[C@@H](C)[C@@](O)(O3)C(=O)C(=O)N3CCCCC3C(=O)O2)CC[C@H]1O (stereo partly shown)", 1.30),
    ("CO[C@@H]1CC(C[C@@H](C)[C@@H]2CC[C@H](C)/C=C(\\C)[C@@H](O)[C@@H](OC)C(=O)[C@H](C)C[C@H](C)/C=C/C=C/C=C(\\C)C(Nc3ccccc3)CC3CC[C@@H](C)[C@@](O)(O3)C(=O)C(=O)N3CCCC[C@H]3C(=O)O2)CC[C@H]1O (stereo partly shown)", 1.95),
]

Now take the following compound into account.
Query: Endpoint output: log10 of microsomal CLint at 1 µM of CO[C@@H]1C[C@H](C[C@@H](C)[C@@H]2CC[C@H](C)/C=C(\C)[C@@H](O)[C@@H](OC)C(=O)[C@H](C)C[C@H](C)/C=C/C=C/C=C(\C)C(Nc3ccc(Cl)cc3)C[C@@H]3CC[C@@H](C)[C@@](O)(O3)C(=O)C(=O)N3CCCCC3C(=O)O2)CC[C@H]1O (stereo partly shown) . Value?
Response: 1.62
